- Test system: CAKI-1 (Renal)
- ASSAY NOTES: Cytotoxicity in selected cancer cell lines (SRB, 48 h)
- Format: cell-based, human
QUANTITY MEASURED: GI50 (µM)
Numbers only here, please. The scale is µM.

Exercise: Give GI50 for the following molecule: COc1cc(/C=C/C(=O)c2ccc(O)cc2)ccc1OCCCOc1cc2c(cc1OC)C(=O)N1CCC[C@H]1C=N2 [6g]
Key: 22.9

====

Measured Log10TGI mean graph midpoint (MG_MID) values are reported for all entries that follow.
- Test system: human tumour cell lines
- ASSAY NOTES: In vitro cytotoxicity, mean graph midpoints (MG_MID) over human tumour cell lines
- Assay type: cell-based
- COND: total cell growth inhibition; human tumour cell lines; 48 h exposure, SRB
Just the number, please.

> print(dat)
                                   compound            tested.target  experimental.result
1  COc1cc(C=CC(=O)c2c(C)nc3ccccc3c2C)ccc1OCCCOc1cc2c(cc1OC)C(=O)N1CCC[C@H]1C=N2 [10a]  human tumour cell lines                −6.90

Exercise: Give Log10TGI mean graph midpoint (MG_MID) for the following compound: "COc1cc(C=CC(=O)c2ccc(F)cc2)ccc1OCCCCOc1cc2c(cc1OC)C(=O)N1CCC[C@H]1C=N2"
Key: −6.81

Exercise: Give Log10TGI mean graph midpoint (MG_MID) for the following compound: COc1cc(C=CC(=O)c2c(C)nc3ccccc3c2C)ccc1OCCCCOc1cc2c(cc1OC)C(=O)N1CCC[C@H]1C=N2 [10b]
Key: −6.94

Exercise: Give Log10TGI mean graph midpoint (MG_MID) for the following compound: "COc1cc(/C=C/C(=O)c2ccc(O)cc2)ccc1OCCCOc1cc2c(cc1OC)C(=O)N1CCC[C@H]1C=N2"
Key: −5.86

Exercise: Give Log10TGI mean graph midpoint (MG_MID) for the following compound: "COc1cc(C=CC(=O)c2ccc(F)cc2)ccc1OCCCCCOc1cc2c(cc1OC)C(=O)N1CCC[C@H]1C=N2"
Key: −6.79

====

- Tested on: CNS cancer cell lines
- ASSAY NOTES: NCI in vitro anticancer screen, SRB assay, 48 h, panel average
- Type: cell-based, human
- COND: average of six to eight cell lines, 48 h exposure
Measured Log GI50 (concentration in mol/L causing 50% growth inhibition) values are reported for all entries that follow.
Numbers only here, please. The scale is mol/L.

Some solved entries appear below for comparison.
> print(dat)
                                   molecule          tested.target  reading.unit  experimental.result
1  COc1cc(C=CC(=O)c2c(C)nc3ccccc3c2C)ccc1OCCCOc1cc2c(cc1OC)C(=O)N1CCC[C@H]1C=N2 [10a]  CNS cancer cell lines         mol/L                −6.61
2  COc1cc(/C=C/C(=O)c2ccc(O)cc2)ccc1OCCCOc1cc2c(cc1OC)C(=O)N1CCC[C@H]1C=N2  CNS cancer cell lines         mol/L                −5.62
3  COc1cc(C=CC(=O)c2ccc(F)cc2)ccc1OCCCCCOc1cc2c(cc1OC)C(=O)N1CCC[C@H]1C=N2  CNS cancer cell lines         mol/L                −5.68
4  COc1cc(C=CC(=O)c2c(C)nc3ccccc3c2C)ccc1OCCCCOc1cc2c(cc1OC)C(=O)N1CCC[C@H]1C=N2 [10b]  CNS cancer cell lines         mol/L                −6.16

Switching to the query record.
Exercise: Give Log GI50 (concentration in mol/L causing 50% growth inhibition) for the following molecule: "COc1cc(C=CC(=O)c2ccc(F)cc2)ccc1OCCCCOc1cc2c(cc1OC)C(=O)N1CCC[C@H]1C=N2"
Key: −5.91

====

- Tested on: CAKI-1 (Renal)
- ASSAY NOTES: Cytotoxicity in selected cancer cell lines (SRB, 48 h)
- Type: cell-based, human
QUANTITY MEASURED: GI50 (µM)
Numbers only here, please. The scale is µM.

Some solved entries appear below for comparison.
> print(dat)
                                   compound  experimental.result
1  COc1cc(C=CC(=O)c2ccc(F)cc2)ccc1OCCCCOc1cc2c(cc1OC)C(=O)N1CCC[C@H]1C=N2                 13.6
2  COc1cc(C=CC(=O)c2c(C)nc3ccccc3c2C)ccc1OCCCCOc1cc2c(cc1OC)C(=O)N1CCC[C@H]1C=N2 [10b]                 12.9
3  COc1cc(C=CC(=O)c2c(C)nc3ccccc3c2C)ccc1OCCCOc1cc2c(cc1OC)C(=O)N1CCC[C@H]1C=N2 [10a]                 15.8

Exercise: Give GI50 for the following compound: "COc1cc(C=CC(=O)c2ccc(F)cc2)ccc1OCCCCCOc1cc2c(cc1OC)C(=O)N1CCC[C@H]1C=N2"
Key: 15.8
